The following sequences are listed with their measured protein stability index values.
- Assay Comment: protein stability index of a GFP-peptide fusion (yeast GPS) (PSI 1-4); higher = more stable; sorted into four equal gates, so the index is relative within each strain
- Experimental Parameters: doa10∆
Enter the number alone.

Example sequences with recorded protein stability index:
>  <Sequence String>
VYVTGGRNLGRIGTIVH [RPS4A]

>  <Measured Attribute>
protein stability index

>  <Result>
3.02

$$$$
>  <Sequence String>
VGGKSTVQNEILGDLGK [FAS2]

>  <Measured Attribute>
protein stability index

>  <Result>
3.02

$$$$
>  <Sequence String>
SKSAFSFGTANTNGTNA [YOR098C/NUP1]

>  <Measured Attribute>
protein stability index

>  <Result>
3

$$$$

Consider KFGACVAQGIMNAGGRN [RPN2] . Its measured protein stability index is 3.02

Record summary for HMADAKIMPKDILQITK [SIR4] : reported protein stability index = 2.99

protein stability index reported for this sequence KLHVNWNLNATKPNVLN [SIN4] : 2.94

// protein stability index lookup, sequence = NLENMSIQDTSTVAKNV [YCG1] , result: 3.01

Record RDVSDDVFDTLATYCPR [GRR1] , field protein stability index: 3.02

Note to self: protein stability index recorded for AGTEANAVSFDTTFSDF [SRB4] was 3.03

* * *

- Assay Comment: protein stability index of a GFP-peptide fusion (yeast GPS) (PSI 1-4); higher = more stable; sorted into four equal gates, so the index is relative within each strain
- Experimental Parameters: ubr1∆
Entries annotated with measured protein stability index
Reply with the value as a number alone.

>  <Sequence String>
GRVKALEQFMERNNIGE [YDL116W/NUP84]

>  <protein stability index>
3.07

$$$$
>  <Sequence String>
AISGKKTTYYYYNEEGI [RPC82]

>  <protein stability index>
3.06

$$$$
>  <Sequence String>
NIPWDVPGMPAPIKKII [PRP8]

>  <protein stability index>
3.05

$$$$

The measured protein stability index associated with LTNLLSQLNIQLSQDEH [SRP72] reads 3.09

# sequence HILFQNNPDMMIQPPQQ [ROX3] ; its protein stability index = 3.02

Reported protein stability index ( HIILDTISECNLYDDVK [MED1] ) = 3

Lab note: measured protein stability index of PNIHQNLLPKKSAKTAK [HTA2] was 3

* * *

- Assay Comment: protein stability index of a GFP-peptide fusion (yeast GPS) (PSI 1-4); higher = more stable; sorted into four equal gates, so the index is relative within each strain
- Experimental Parameters: doa10∆
Grouping by measured protein stability index is done with the following cut points: low = under 2, medium = from 2 up to 3, high = 3 and over

The following sequences have reported results that may help.
>  <Sequence String>
KSLESQRYVKSVKSVKF [RPC34]

>  <Assigned Class>
low

$$$$
>  <Sequence String>
NIATQQNMQQSLQQMQH [GAL11]

>  <Assigned Class>
medium

$$$$
>  <Sequence String>
YFLVLSPYGNLQNDLIH [RPN5]

>  <Assigned Class>
low

$$$$
>  <Sequence String>
QQQQQQQQQQQNNSTGS [SSN2]

>  <Assigned Class>
medium

$$$$
>  <Sequence String>
DTVNSALENDVATNIVN [YML103C/NUP188]

>  <Assigned Class>
medium

$$$$

[Q] Input LKHVLQLIFRQQTGLVD [SNU114] ; output its category
[A] low
